# Tested on: Enterobacter RO 154
# PROTOCOL_NOTES: MIC, in vitro dilution method, Enterobacter RO 154 (Table III)
# Type: cell-based
# CONDITION_SUMMARY: RO154; Enterobacter RO 154; dilution method; read-out: MIC
Property: MIC; scope: individual molecules

| MOLECULE | TGT | UNIT | READOUT_QUALIFIER | MIC |
| --- | --- | --- | --- | --- |
| CC(C)(O/N=C(\C(=O)NC1C(=O)N2C(C(=O)O)=C(COC(=O)[C@H]3CC[C@H](CN)CC3)C[S+]([O-])C12)c1csc(N)n1)C(=O)O (stereo partly drawn) [42 117] | Enterobacter RO 154 | µg/mL | = | 1 |
| CC(C)(O/N=C(\C(=O)NC1C(=O)N2C(C(=O)O)=C(COC(=O)c3ccc(CN)cc3)C[S+]([O-])C12)c1csc(N)n1)C(=O)O (stereo not drawn) [42 042] | Enterobacter RO 154 | µg/mL | = | 1 |
| NCC(=O)Nc1ccc(C(=O)SCC2=C(C(=O)O)N3C(=O)C(NC(=O)C(=NOC4(C(=O)O)CCC4)c4csc(N)n4)C3[S+]([O-])C2)cc1 (stereo not drawn) [compound 42665] | Enterobacter RO 154 | µg/mL | = | 2 |
| CC(CCN)C(=O)OCC1=C(C(=O)O)N2C(=O)C(NC(=O)C(=NOC3(C(=O)O)CCC3)c3csc(N)n3)C2[S+]([O-])C1 (stereo not drawn) [42 209] | Enterobacter RO 154 | µg/mL | ≤ | 0.12 |
| CC(C)(CN)C(=O)OCC1=C(C(=O)O)N2C(=O)C(NC(=O)/C(=N\OC3(C(=O)O)CCC3)c3csc(N)n3)C2[S+]([O-])C1 (stereo not drawn) [42 208] | Enterobacter RO 154 | µg/mL | = | 0.25 |
| CC(ON=C(C(=O)NC1C(=O)N2C(C(=O)O)=C(CSC(=O)c3ccc(CN)cc3)C[S+]([O-])C12)c1csc(N)n1)C(=O)O (stereo not drawn) [compound 42221] | Enterobacter RO 154 | µg/mL | = | 0.25 |
